Reported chromatographic logP is given for each of the following molecules.
Experiment: log P by HPLC-MS
Assay type: physicochemical
Kindly provide the number alone.

Reference set, count: 6
>  <GIVEN_SMILES>
Cn1cnc2cc(C(F)(F)F)cnc21

>  <chromatographic logP>
1.44

$$$$
>  <GIVEN_SMILES>
Cn1c(I)nc2cc(C(F)(F)F)nnc21

>  <chromatographic logP>
1.66

$$$$
>  <GIVEN_SMILES>
Cn1cnc2cc(C(F)(F)F)ncc21

>  <chromatographic logP>
1.09

$$$$
>  <GIVEN_SMILES>
Cn1c(Br)nc2cc(C(F)(F)F)ncc21

>  <chromatographic logP>
1.71

$$$$
>  <GIVEN_SMILES>
Cn1cnc2cc(C(F)(F)F)nnc21

>  <chromatographic logP>
0.91

$$$$
>  <GIVEN_SMILES>
Cn1c(I)nc2cc(C(F)(F)F)cnc21

>  <chromatographic logP>
2.29

$$$$

Now look at this entry.
Request: // returns reported chromatographic logP for input `Cn1c(I)nc2cc(C(F)(F)F)ncc21`
Response: 1.77
